- SYSTEM: T1, 15-mer peptide LGIWGCSGKLICTTT (SEQ ID NO:1) (HIV, not fully specified; cysteine pairing not given here)
- T1 construct: also called U1731DB060-1; U173DB060-1
- T1 peptide: LGIWGCSGKLICTTT
- ASSAY_EXPLANATION: indirect ELISA; 15-mer peptide coated 1 ug/ml in DTT; negative control well of this row (not explained)
No end group written: not given here.
Answer not satisfied if ELISA OD (Neg. Cont.) is under 0.08 OD, and satisfied if it is 0.08 OD or more.

BINDER: HIV-binding peptide #1 (antibody, human IgG1, kappa, V domains shown, Recombinant, fully human immunoglobulin; also called U1205DB020-1) VH: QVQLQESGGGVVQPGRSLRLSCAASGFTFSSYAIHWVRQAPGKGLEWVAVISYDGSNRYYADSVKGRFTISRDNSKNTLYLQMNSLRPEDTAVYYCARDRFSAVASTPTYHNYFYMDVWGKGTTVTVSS VL: DIQMTQSPSSLSASVGDRVTITCQASQDVNNYLAWYQQKPGQAPRLLIYDASNLETGVPSRFSGSGSGTDFTLTISSLQPEDLATYYCQQYDNTPYTFGQGTKLEIKR
CLASS: satisfied
//
BINDER: HIV-binding peptide #2 (antibody, human IgG1, kappa, V domains shown, Recombinant, fully human immunoglobulin; also called U1205DB020-2) VH: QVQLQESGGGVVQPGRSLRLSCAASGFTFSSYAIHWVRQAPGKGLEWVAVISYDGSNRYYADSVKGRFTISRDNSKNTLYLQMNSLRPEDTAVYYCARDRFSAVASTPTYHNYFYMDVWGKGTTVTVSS VL: DIQMTQSPSSLSASVGDRVTITCQASQDINNYLAWYQQKPGQAPRLLIYDASNLETGVPSRFSGSGSGTDFTLTISSLQPEDLATYYCQQYDNTPYTFGQGTKLEIKR
CLASS: not satisfied
//
BINDER: HIV-binding peptide #3 (antibody, human IgG1, kappa, V domains shown, Recombinant, fully human immunoglobulin; also called U1205DB020-3) VH: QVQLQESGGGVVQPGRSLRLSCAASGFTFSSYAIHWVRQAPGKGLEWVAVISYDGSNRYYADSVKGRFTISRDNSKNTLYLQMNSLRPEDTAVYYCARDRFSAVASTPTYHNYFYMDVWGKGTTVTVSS VL: DIQMTQSPSSLSASVGDRVTITCQASQDVNNYLAWYQQKPGQAPRLLIYDASNLETGVPSRFSGSGSGTDFTLTISSLQPEDLATYYCQQYDNLPYTFGQGTKLEIKR
CLASS: satisfied
//
BINDER: HIV-binding peptide #4 (antibody, human IgG1, kappa, V domains shown, Recombinant, fully human immunoglobulin; also called U1205DB020-4) VH: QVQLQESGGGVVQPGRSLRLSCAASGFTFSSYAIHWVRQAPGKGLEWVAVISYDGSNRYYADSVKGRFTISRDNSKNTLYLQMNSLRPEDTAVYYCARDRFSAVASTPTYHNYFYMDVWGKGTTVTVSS VL: DIQMTQSPSSLSASVGDRVTITCQASQDINNYLAWYQQKPGQAPRLLIYDASNLETGVPSRFSGSGSGTDFTLTISSLQPEDLATYYCQQYDNLPYTFGQGTKLEIKR
CLASS: satisfied

From: patent US20250002565A1
